Values were extracted from ChEMBL document CHEMBL5331134.

- RUN DESCRIPTION: Drug concentration in C57BL/6 mouse plasma at 10 mg/kg, po measured after 1 hr
- Type: ADME, organism-based
Below, each entry is listed with its recorded concentration at 1 h.
# value in µM; strip the unit string

C[C@@H]1COCCN1c1cc(N2CCOC[C@@H]2C)nc2[nH]c(-c3cscn3)nc12 :: 4.42

As a next step, examine the molecule that follows.
Qu. Please report the recorded concentration at 1 h for `C[C@@H]1COCCN1c1cc(N2CCOC[C@@H]2C)nc2[nH]c(-c3ccccn3)nc12` .
Ans. 2.48

* * *

- RUN DESCRIPTION: Drug concentration in C57BL/6 mouse plasma at 1 mg/kg, po measured after 1 hr
- Assay type: ADME, organism-based
QUANTITY NAME: concentration at 1 h (nM)
# value in nM; strip the unit string

Qu. Please report the recorded concentration at 1 h for `C[C@@H]1COCCN1c1cc(N2CCOC[C@@H]2C)nc2[nH]c(-c3cscn3)nc12` .
Ans. 766
